Hi, quick share: literature log10(IC50) data for Prostaglandin G/H synthase 1 (Ovis aries), several sources combined.
Please note: log10 values; quantity IC50; unit µM.

{"columns": ["compound", "measurementType", "measurement"],
 "data": [
  ["N#Cc1c(N=Cc2cccnc2)c(C(=O)Nc2ccccc2)n2c1CCC2", "log10(IC50)", 1.05],
  ["COc1ccc(/C=C2\\OC(=O)C(c3ccccc3Cl)=C2c2ccc(S(C)(=O)=O)cc2)cc1", "log10(IC50)", 0.93],
  ["O=C(Nc1cc(Cl)cc(Cl)c1)c1cnc(O)c(Cl)c1", "log10(IC50)", 1.46],
  ["Cc1nc(-c2ccccc2)sc1-c1cc(C(F)(F)F)nn1-c1ccc(S(N)(=O)=O)cc1", "log10(IC50)", 0.80],
  ["CS(=O)(=O)c1ccc(C2C(c3ccccc3)=NOC23Cc2ccccc2C3=O)cc1 (centres undefined)", "log10(IC50)", 1.06]
]}

The record that follows has no log10(IC50) shown yet.
The value of log10(IC50) measured for the compound COc1cc([C@@H]2CC(=O)c3c(cc(O)c(C/C=C(\C)CCC=C(C)C)c3O)O2)cc(O)c1OC turned out to be 0.62
